# test-details: Example 1: pharmacokinetics of Compound I, single (SD) and multiple (MD, q8h 7 days) ascending doses, 3-hour IV infusion, healthy adult subjects
# Type: in vivo, human
# condition-context: human, plasma, intravenous, 500 mg, 500 mg single dose
# Procedure: 56 healthy subjects were enrolled into one of 7 cohorts of 8 subjects each in the single ascending dose phase (250 mg, 500 mg, 750 mg, 1000 mg, 1250 mg, 1500 mg and 2000 mg). Thirty-two additional subjects were then enrolled into one of 4 cohorts in the multiple-dose phase (250 mg, 1000 mg, 1500 mg, and 2000 mg, given q8 h for 7 days). […] All infusions were administered over 3 hours. […]
reported-property: AUC(0-t) (ng·h/mL)
One number for each entry, in ng·h/mL.

Kindly note the recorded AUC(0-t) for O=C(O)C[C@@H]1CC[C@H](NC(=O)Cc2cccs2)B(O)O1 , which is 34500

----------
# test-details: clinical
# condition-context: human, in vivo, 1500 mg, Plasma Clearance
reported-property: clearance (mL/min)
Numbers only, in mL/min.

Kindly note the recorded clearance for O=C(O)C[C@@H]1CC[C@H](NC(=O)Cc2cccs2)B(O)O1 , which is 206

----------
# test-details: Example 1: pharmacokinetics of Compound I, single (SD) and multiple (MD, q8h 7 days) ascending doses, 3-hour IV infusion, healthy adult subjects
# Assay type: in vivo, human
# condition-context: human, plasma, intravenous, 1500 mg, 1500 mg multiple dose
reported-property: Tmax (h)
Numbers only, in h.

Kindly note the recorded Tmax for O=C(O)C[C@@H]1CC[C@H](NC(=O)Cc2cccs2)B(O)O1 , which is 3

----------
# test-details: Plasma protein binding
# Format: in vitro ADME
Please provide measured fraction unbound for the entries that follow.
Answers are plain numbers.

Kindly note the recorded fraction unbound for C[C@@H](O)[C@H]1C(=O)N2C(C(=O)O)=C(S[C@@H]3CN[C@H](C(=O)N(C)C)C3)[C@H](C)[C@H]12 , which is 0.94

Let us examine a further case.
Kindly note the recorded fraction unbound for O=C(O)C[C@@H]1CC[C@H](NC(=O)Cc2cccs2)B(O)O1 , which is 0.67

----------
# test-details: clinical
# condition-context: human, in vivo, 1000 mg, Plasma Clearance
reported-property: clearance (mL/min)
One number for each entry, in mL/min.

Kindly note the recorded clearance for O=C(O)C[C@@H]1CC[C@H](NC(=O)Cc2cccs2)B(O)O1 , which is 222

----------
# test-details: clinical
# condition-context: both, human, in vivo, AUC0-8 based on mean ELF concentrations
# Description: A total of twenty-five (n=25) male and female subjects who met the study entry criteria and completed all phases of the pharmacokinetic study were included in this pharmacokinetic analysis. […] The concentration of drug (ABXAM) in the alveolar cells (AC) was determined as follows: […] The concentration ratios of ELF and AM to the simultaneous plasma concentrations were calculated for each subject and summarized for each group at each sampling time. […]
reported-property: AUC(0-t) (µg·h/mL)
Give bare numbers, in µg·h/mL.

Kindly note the recorded AUC(0-t) for C[C@@H](O)[C@H]1C(=O)N2C(C(=O)O)=C(S[C@@H]3CN[C@H](C(=O)N(C)C)C3)[C@H](C)[C@H]12 , which is 112

Let us examine a further case.
Kindly note the recorded AUC(0-t) for O=C(O)C[C@@H]1CC[C@H](NC(=O)Cc2cccs2)B(O)O1 , which is 105

----------
# test-details: clinical
# condition-context: both, human, in vivo, Concentration in ELF
reported-property: concentration at 3.25 h (ng/mL)
One number for each entry, in ng/mL.

Kindly note the recorded concentration at 3.25 h for C[C@@H](O)[C@H]1C(=O)N2C(C(=O)O)=C(S[C@@H]3CN[C@H](C(=O)N(C)C)C3)[C@H](C)[C@H]12 [meropenem, Meropenem] , which is 28300

----------
# test-details: Example 1: pharmacokinetics of Compound I, single (SD) and multiple (MD, q8h 7 days) ascending doses, 3-hour IV infusion, healthy adult subjects
# Format: in vivo, human
# condition-context: human, plasma and urine, intravenous, 1500 mg, 1500 mg multiple dose
reported-property: CL renal (mL/min)
Answers are plain numbers, in mL/min.

Kindly note the recorded CL renal for O=C(O)C[C@@H]1CC[C@H](NC(=O)Cc2cccs2)B(O)O1 , which is 187

----------
# test-details: Example 6: noncompartmental plasma pharmacokinetics after third dose of the Combination (2 g meropenem/2 g Compound I q8h)
# condition-context: both, human, plasma, intravenous, Tmax, meropenem 2 g q8h, 8-hour BAL Sampling Group
reported-property: Tmax (h)
Answers are plain numbers, in h.

Kindly note the recorded Tmax for C[C@@H](O)[C@H]1C(=O)N2C(C(=O)O)=C(S[C@@H]3CN[C@H](C(=O)N(C)C)C3)[C@H](C)[C@H]12 , which is 2.98

----------
# test-details: clinical
# condition-context: both, human, in vivo, Ratio ELF to Plasma (total plasma concentration)
# Description: A total of twenty-five (n=25) male and female subjects who met the study entry criteria and completed all phases of the pharmacokinetic study were included in this pharmacokinetic analysis. […] The concentration of drug (ABXAM) in the alveolar cells (AC) was determined as follows: […] The concentration ratios of ELF and AM to the simultaneous plasma concentrations were calculated for each subject and summarized for each group at each sampling time. […]
reported-property: Kp at 6 h

Kindly note the recorded Kp at 6 h for O=C(O)C[C@@H]1CC[C@H](NC(=O)Cc2cccs2)B(O)O1 , which is 0.705

----------
# test-details: clinical
# condition-context: human, in vivo, 1000 mg, Plasma Clearance
reported-property: clearance (mL/min)
One number for each entry, in mL/min.

Kindly note the recorded clearance for O=C(O)C[C@@H]1CC[C@H](NC(=O)Cc2cccs2)B(O)O1 , which is 222

----------
# test-details: Example 1: pharmacokinetics of Compound I, single (SD) and multiple (MD, q8h 7 days) ascending doses, 3-hour IV infusion, healthy adult subjects
# Type: in vivo, human
# condition-context: human, plasma and urine, intravenous, 750 mg, 750 mg single dose
reported-property: CL renal (mL/min)
Give bare numbers, in mL/min.

Kindly note the recorded CL renal for O=C(O)C[C@@H]1CC[C@H](NC(=O)Cc2cccs2)B(O)O1 , which is 217

----------
# test-details: clinical
# condition-context: human, in vivo, 1000 mg, Half-Life
reported-property: half-life

Kindly note the recorded half-life for O=C(O)C[C@@H]1CC[C@H](NC(=O)Cc2cccs2)B(O)O1 [Compound I] , which is 1.56 h

----------
# test-details: clinical
# condition-context: both, human, in vivo, Ratio of ELF to total Plasma concentration
reported-property: Kp at 4 h

Kindly note the recorded Kp at 4 h for C[C@@H](O)[C@H]1C(=O)N2C(C(=O)O)=C(S[C@@H]3CN[C@H](C(=O)N(C)C)C3)[C@H](C)[C@H]12 , which is 0.705

----------
# test-details: Example 1: pharmacokinetics of Compound I, single (SD) and multiple (MD, q8h 7 days) ascending doses, 3-hour IV infusion, healthy adult subjects
# Format: in vivo, human
# condition-context: human, plasma, intravenous, 1500 mg, 1500 mg single dose
reported-property: AUC(0-t) (µg·h/mL)
Numbers only, in µg·h/mL.

Kindly note the recorded AUC(0-t) for O=C(O)C[C@@H]1CC[C@H](NC(=O)Cc2cccs2)B(O)O1 , which is 110

----------
# test-details: Example 6: noncompartmental plasma pharmacokinetics after third dose of the Combination (2 g meropenem/2 g Compound I q8h)
# condition-context: both, human, plasma, intravenous, t1/2, meropenem 2 g q8h, 1.5-hour BAL Sampling Group
reported-property: half-life (min)
Answers are plain numbers, in min.

Kindly note the recorded half-life for C[C@@H](O)[C@H]1C(=O)N2C(C(=O)O)=C(S[C@@H]3CN[C@H](C(=O)N(C)C)C3)[C@H](C)[C@H]12 , which is 58.8

----------
# test-details: clinical
# condition-context: both, human, in vivo, Concentration in ELF
reported-property: concentration at 6 h (ng/mL)
Answers are plain numbers, in ng/mL.

Kindly note the recorded concentration at 6 h for C[C@@H](O)[C@H]1C(=O)N2C(C(=O)O)=C(S[C@@H]3CN[C@H](C(=O)N(C)C)C3)[C@H](C)[C@H]12 , which is 7520

----------
# test-details: clinical
# condition-context: both, human, in vivo, Ratio ELF to Plasma (total plasma concentration)
reported-property: Kp at 3.25 h
One number for each entry.

Kindly note the recorded Kp at 3.25 h for O=C(O)C[C@@H]1CC[C@H](NC(=O)Cc2cccs2)B(O)O1 , which is 0.508

----------
# test-details: clinical
# condition-context: human, in vivo, 1000 mg, Cmax
reported-property: Cmax
Number first, unit second: that is the form wanted.

Kindly note the recorded Cmax for O=C(O)C[C@@H]1CC[C@H](NC(=O)Cc2cccs2)B(O)O1 , which is 22000 ng/mL

----------
# test-details: Example 1: pharmacokinetics of Compound I, single (SD) and multiple (MD, q8h 7 days) ascending doses, 3-hour IV infusion, healthy adult subjects
# Format: in vivo, human
# condition-context: human, plasma, intravenous, 1000 mg, 1000 mg single dose
reported-property: AUC(0-t) (ng·h/mL)
One number for each entry, in ng·h/mL.

Kindly note the recorded AUC(0-t) for O=C(O)C[C@@H]1CC[C@H](NC(=O)Cc2cccs2)B(O)O1 , which is 76700
